Form field: GI50 (one value per entry).
Test system: T-47D breast

Cc1ccc(C2NC(=S)NC3=C2CCOc2c3ccc3ccccc23)cc1 (stereo not drawn) ... 35.7 µM
CS(=O)CCCCCN=C=S (stereo not drawn) ... 2.32 µM

From here, focus on the item given below.
Q: // fetch GI50; item: COCC1CCCN1c1ccc(/C=C(/C#N)C(N)=S)cc1 (stereo not drawn) ; system: T-47D breast
Result: 30.6 µM

====

Tested on: DU-145 prostate
Experiment notes: NCI tumour cell line growth inhibition, 48 h
Quantity measured: TGI

Q: Tell me TGI reported for Cc1cc2cc3cc(C)c(N(C)C)cc3nc2cc1N(C)C
Result: 25.8 µM

Q: Report TGI, nothing else, for this compound: COC(=O)C(O)P(=O)(OC)OC (stereo unspecified)
Result: > 100 µM
